Biological target: UniProtKB P30557
Sequence (P30557 1-365): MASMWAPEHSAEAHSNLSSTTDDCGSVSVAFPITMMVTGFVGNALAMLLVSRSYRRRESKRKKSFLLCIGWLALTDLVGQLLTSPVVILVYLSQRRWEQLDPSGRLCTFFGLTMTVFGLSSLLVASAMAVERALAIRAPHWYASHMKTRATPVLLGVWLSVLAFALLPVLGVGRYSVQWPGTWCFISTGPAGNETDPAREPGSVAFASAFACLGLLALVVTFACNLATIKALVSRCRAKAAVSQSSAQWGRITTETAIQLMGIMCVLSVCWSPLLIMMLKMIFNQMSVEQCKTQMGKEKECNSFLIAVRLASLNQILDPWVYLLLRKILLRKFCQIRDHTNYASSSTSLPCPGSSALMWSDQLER
pKi: −log10 of the molar value.
pKi vs 7: at or above is True, below is False.

Illustrative cases are given below, each with its answer.
Q: In plain terms: is recorded pKi at least 7 for Cc1cc(Cl)cc(C)c1S(=O)(=O)NC[C@@H]1[C@@H](/C=C\CCCC(=O)O)[C@H]2C=C[C@@H]1CC2 [Example 6(e)] ?
Ans: False

Q: Input O=C(O)CCC/C=C\[C@@H]1[C@@H]2CC[C@@H](C2)[C@@H]1CNS(=O)(=O)c1ccc(Cl)cc1Cl
Ans: False

Q: Input Cc1cc(Br)ccc1S(=O)(=O)NC[C@H]1CC=CC[C@@H]1/C=C\CCCC(=O)O
Ans: True

Q: Input Cc1cc(Cl)ccc1S(=O)(=O)NC[C@H]1C2CCC(CC2)[C@@H]1/C=C\CCCC(=O)O
Ans: False

Q: Input Cc1cc(Cl)ccc1S(=O)(=O)NC[C@H]1[C@H]2CC[C@H](C2)[C@H]1/C=C\CCCC(=O)O [Example 5(e)]
Ans: False

New cases:
Q: In plain terms: is recorded pKi at least 7 for Cc1cc(Cl)ccc1S(=O)(=O)NC[C@H]1CC=CC[C@@H]1/C=C\CCCC(=O)O ?
Ans: True

Q: Input O=C(O)CCC/C=C\[C@@H]1[C@@H](CNS(=O)(=O)c2ccc(Cl)cc2Cl)[C@@H]2C=C[C@H]1CC2
Ans: False

----------
Parameter: pKi. Scope: all listed entries.
Target: mouse EP1 (Mus musculus, UniProt P35375)
Sequence (P35375 1-405): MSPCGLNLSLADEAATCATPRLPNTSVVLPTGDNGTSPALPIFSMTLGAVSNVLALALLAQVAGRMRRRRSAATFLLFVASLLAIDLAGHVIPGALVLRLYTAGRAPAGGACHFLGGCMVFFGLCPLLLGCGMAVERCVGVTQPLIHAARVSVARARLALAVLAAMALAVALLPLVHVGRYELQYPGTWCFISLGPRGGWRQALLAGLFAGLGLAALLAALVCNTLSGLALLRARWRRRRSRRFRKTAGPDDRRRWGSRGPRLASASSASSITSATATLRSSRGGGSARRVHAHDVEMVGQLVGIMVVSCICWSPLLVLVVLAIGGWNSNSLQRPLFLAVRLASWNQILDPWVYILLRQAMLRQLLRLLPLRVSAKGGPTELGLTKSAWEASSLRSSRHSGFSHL
Recall that pKi is obtained by taking minus log10 of the concentration measured in molar.

Q: Please look up its pKi: O=C(O)CCC/C=C\[C@@H]1C2CCC(CC2)[C@@H]1CNS(=O)(=O)c1ccc(Cl)cc1Cl
Ans: 9.30

New cases:
Q: Please look up its pKi: Cc1cc(Cl)cc(C)c1S(=O)(=O)NC[C@@H]1[C@@H](/C=C\CCCC(=O)O)[C@H]2C=C[C@@H]1CC2 [Example 6(e)]
Ans: 8.38

Q: Input Cc1cc(Cl)ccc1S(=O)(=O)NC[C@H]1C2CCC(CC2)[C@@H]1/C=C\CCCC(=O)O
Ans: 8.74

Q: Input Cc1cc(Cl)ccc1S(=O)(=O)NC[C@H]1[C@H]2CC[C@H](C2)[C@H]1/C=C\CCCC(=O)O [Example 5(e)]
Ans: 8.14

Q: Input Cc1cc(Cl)ccc1S(=O)(=O)NC[C@H]1CCCC[C@@H]1/C=C\CCCC(=O)O
Ans: 8.96

Q: Input O=C(O)CCC/C=C\[C@H]1CCCC[C@@H]1CNS(=O)(=O)c1ccc(Cl)cc1Cl
Ans: 8.51

Q: Input O=C(O)CCC/C=C\[C@H]1CCCC[C@@H]1CNS(=O)(=O)c1c(Cl)cc(Cl)cc1Cl [Example 3(e)]
Ans: 8.08

Q: Input O=C(O)CCC/C=C\[C@@H]1[C@@H](CNS(=O)(=O)c2ccc(Cl)cc2Cl)[C@@H]2C=C[C@H]1CC2
Ans: 8.41

Q: Input O=C(O)CCC/C=C\[C@@H]1[C@@H]2CC[C@@H](C2)[C@@H]1CNS(=O)(=O)c1ccc(Cl)cc1F
Ans: 7.64

Q: Input Cc1cc(Cl)ccc1S(=O)(=O)NC[C@H]1C2CCC(CC2)[C@H]1/C=C/CCCC(=O)O
Ans: 8.29

Q: Input O=C(O)CCC/C=C\[C@@H]1[C@@H]2CC[C@@H](C2)[C@@H]1CNS(=O)(=O)c1ccc(Cl)cc1Cl
Ans: 7.92
